Tested on: HEK-293T
method-summary: Multiplex assay against HEK293T
Format: toxicity, cell-based
particulars: human, 48 h, 10 µM, compound concentration 10 uM, replicate 1
Is Population Pyknosed Nuclei (%) at least 7%? Then Fulfilled. If not, Not fulfilled.

>>> print(df.to_string())
                                    molecule  target_desc    class_label
 0  Cc1nc2ccc(Oc3ccc(F)cc3)cc2c(=O)n1C[C@H]1CCCN(C(C)C)C1.Cl     HEK-293T      Fulfilled
 1  c1cc(OCCCN2CCCCC2)ccc1CN1CCCCC1 [JNJ-5207852]     HEK-293T      Fulfilled
 2   CN(C)c1ccnc2sc3c(=O)n(N4CCCCCC4)cnc3c12     HEK-293T      Fulfilled
 3  CC(C)(C)c1ccc(S(=O)(=O)Nc2ccc(Cl)cc2C(=O)c2cc[n+]([O-])cc2)cc1 [VERCIRNON]     HEK-293T  Not fulfilled
 4  CN(C)CCCc1cc(C(=O)Nc2ccc(-c3ccncc3)cc2)ccc1O.Cl.Cl     HEK-293T  Not fulfilled
 5  Cl.Clc1ccc2nsnc2c1NC1=NCCN1 [TIZANIDINE HYDROCHLORIDE]     HEK-293T  Not fulfilled
 6  Cc1ccc(C(C)(O)c2nc3ccccc3s2)c(C)c1 (centres undefined)     HEK-293T      Fulfilled
 7  COc1cc(C(=O)N(CCCc2ccccc2)Cc2ccc(CC(=O)O)cc2)cc(OC)c1C     HEK-293T      Fulfilled
 8  CCOc1c2c(c(OCC)c3ncccc13)CN(c1ccc(CS(=O)(=O)NC(=O)Cc3ccccc3OC)cc1C)C2=O     HEK-293T      Fulfilled
 9   CCCn1c(=O)c2[nH]c(C3CCCC3)nc2n(CCC)c1=O     HEK-293T      Fulfilled
10  CCCN1CCC[C@@H]2Cc3n[nH]cc3C[C@H]21.Cl [QUINPIROLE HYDROCHLORIDE]     HEK-293T  Not fulfilled
11  C[C@H]1[C@H]2CC[C@H]3[C@@H]4CC=C5C[C@@H](N(C)C)CC[C@]5(C)[C@H]4CC[C@]23CN1C [CONESSINE]     HEK-293T  Not fulfilled
12  O=C(NCC(=O)N1CC[C@H](N[C@H]2CC[C@@](O)(c3ccc(-c4ncccn4)cn3)CC2)C1)c1cccc(C(F)(F)F)c1 [PF-4136309]     HEK-293T      Fulfilled
13  CSc1ccccc1N1CCN(CCCCCC(=O)NC2CCCc3ccccc32)CC1.Cl (centres undefined)     HEK-293T      Fulfilled
14   CNC[C@H](O)c1ccc(O)c(O)c1 [EPINEPHRINE]     HEK-293T  Not fulfilled
15  C[C@H](NC(=O)c1c(C(F)F)nn(C)c1Oc1cccc(C(F)(F)F)c1)c1ccc(C(=O)O)cc1 [PALUPIPRANT]     HEK-293T  Not fulfilled

* * *

Test system: U2OS
method-summary: Multiplex assay against U2OS
Assay type: toxicity, cell-based
particulars: human, 24 h, 10 µM, compound concentration 10 uM, replicate 1
quantity-name: Population Mitotic Cells (%)

>>> print(df.to_string())
                               query_smiles                 quantity_name  reading
0      CC(=O)NCCc1c(Cc2ccccc2)[nH]c2ccccc12  Population Mitotic Cells (%)       12
1  CCOc1c2c(c(OCC)c3ncccc13)CN(c1ccc(CS(=O)(=O)NC(=O)Cc3ccccc3OC)cc1C)C2=O  Population Mitotic Cells (%)       23
2  O=C(O)c1cc2ccccc2c(Cc2c(O)c(C(=O)O)cc3ccccc23)c1O  Population Mitotic Cells (%)       17
3            O=C(O)Cc1ccccc1Nc1c(Cl)cccc1Cl  Population Mitotic Cells (%)       27
4  CN(C)CCCc1cc(C(=O)Nc2ccc(-c3ccncc3)cc2)ccc1O.Cl.Cl  Population Mitotic Cells (%)       27

* * *

Test system: HEK-293T
method-summary: Multiplex assay against HEK293T
Type: toxicity, cell-based
particulars: human, 12 h, 1 µM, compound concentration 1 uM, replicate 1
Listed next: entries and their corresponding Population Pyknosed Nuclei (%).
quantity-name: Population Pyknosed Nuclei (%)

>>> df
                               query_smiles  unit_descriptor  reading
0      CC(=O)NCCc1c(Cc2ccccc2)[nH]c2ccccc12                %       12
1  CC(C)(C)c1ccc(S(=O)(=O)Nc2ccc(Cl)cc2C(=O)c2cc[n+]([O-])cc2)cc1                %       12
2  N[C@@]1(C(=O)O)CO[C@H]2[C@H](C(=O)O)[C@H]21                %       12
3            O=C(O)Cc1ccccc1Nc1c(Cl)cccc1Cl                %       14

* * *

Tested on: U2OS
method-summary: Multiplex assay against U2OS
Format: toxicity, cell-based
particulars: human, 24 h, 1 µM, compound concentration 1 uM, replicate 2
quantity-name: Population Membrane Permeable-Phenotype (%)

>>> df
                                   molecule  reading
0  Cc1nc2ccc(Oc3ccc(F)cc3)cc2c(=O)n1C[C@H]1CCCN(C(C)C)C1.Cl       11
1   CN(C)c1ccnc2sc3c(=O)n(N4CCCCCC4)cnc3c12        6
2      CC(=O)NCCc1c(Cc2ccccc2)[nH]c2ccccc12        5
3  CC(C)(C)c1ccc(S(=O)(=O)Nc2ccc(Cl)cc2C(=O)c2cc[n+]([O-])cc2)cc1        2
4  COc1c(C)cc(NC(=O)c2nn(Cc3ccc(F)cc3)c3c2CN(C(=O)c2ccc[nH]2)C[C@]3(C)C(N)=O)cc1C        7
5  COc1cc(C(=O)N(CCCc2ccccc2)Cc2ccc(CC(=O)O)cc2)cc(OC)c1C        2
6  O=S(=O)(c1ccccc1)c1cnc2c(N3CCNCC3)cccc2c1 [INTEPIRDINE]        3
7  CSc1ccccc1N1CCN(CCCCCC(=O)NC2CCCc3ccccc32)CC1.Cl (centres undefined)       46
8  CN1CCN2c3ncccc3Cc3ccccc3C2C1 (centres undefined)        3

* * *

Let's look at some molecules and their measured Population Tubulin-Different-Phenotype (%).
System: U2OS
method-summary: Multiplex assay against U2OS
Format: toxicity, cell-based
particulars: human, 48 h, 1 µM, compound concentration 1 uM, replicate 2
quantity-name: Population Tubulin-Different-Phenotype (%)

>>> print(df.to_string())
                                   molecule  reading
0  CN(C)CCCc1cc(C(=O)Nc2ccc(-c3ccncc3)cc2)ccc1O.Cl.Cl        4
1  N[C@@]1(C(=O)O)CO[C@H]2[C@H](C(=O)O)[C@H]21 [LY-379268]        5
2  O=C(NCCO)c1cccc(-c2cc(Nc3ccc(OC(F)(F)F)cc3)ncn2)c1        6
3  COc1ccc2c(c1)C(C(=O)N(Cc1ccc(N(C)C)cc1)c1ccc(C(C)C)cc1)CCC2.Cl (stereo not drawn)        2
4  C[C@@H]1C[C@H]2[C@@H]3CCC4=CC(=O)C=C[C@]4(C)[C@@]3(F)[C@@H](O)C[C@]2(C)[C@@]1(O)C(=O)CO [DEXAMETHASONE]        4
5  COc1c(C)cc(NC(=O)c2nn(Cc3ccc(F)cc3)c3c2CN(C(=O)c2ccc[nH]2)C[C@]3(C)C(N)=O)cc1C        5
6  C[C@H]1[C@H]2CC[C@H]3[C@@H]4CC=C5C[C@@H](N(C)C)CC[C@]5(C)[C@H]4CC[C@]23CN1C [CONESSINE]        2
7   CCCn1c(=O)c2[nH]c(C3CCCC3)nc2n(CCC)c1=O        3

* * *

System: Fibroblast
method-summary: Multiplex assay against human fibroblast
Format: toxicity, cell-based
particulars: 48 h, 1 µM, compound concentration 1 uM, replicate 1
Recorded measurements of Population Membrane Permeable-Phenotype (%), one per entry
quantity-name: Population Membrane Permeable-Phenotype (%)

>>> print(df.to_string())
                                   compound  reading
0  COc1c(C)cc(NC(=O)c2nn(Cc3ccc(F)cc3)c3c2CN(C(=O)c2ccc[nH]2)C[C@]3(C)C(N)=O)cc1C        0
1  CC(C)(C)c1ccc(S(=O)(=O)Nc2ccc(Cl)cc2C(=O)c2cc[n+]([O-])cc2)cc1        1
2  CCOc1c2c(c(OCC)c3ncccc13)CN(c1ccc(CS(=O)(=O)NC(=O)Cc3ccccc3OC)cc1C)C2=O        1
3  COc1ccc2c(c1)C(C(=O)N(Cc1ccc(N(C)C)cc1)c1ccc(C(C)C)cc1)CCC2.Cl (stereo not drawn)        1
4                           CCCC(CCC)C(=O)O        0
5  CN1CCN(c2nc3cc(C(F)(F)F)ccc3n3cccc23)CC1.O=C(O)/C=C\C(=O)O.O=C(O)/C=C\C(=O)O        1
6        Cc1ccc(/C(=C\CN2CCCC2)c2ccccn2)cc1        1
7  CCNC1(C(N)=O)CCN(c2ncnc3c2nc(-c2ccccc2Cl)n3-c2ccc(Cl)cc2)CC1        0

These data points were gathered from ChEMBL document CHEMBL5058577.
